Reported EC50 values for the following molecules.
Assay: Cytotoxicity, Cytoselect LDH cytotoxicity assay kit
Assay type: cell-based
Settings: human, HepG2 cells

molecule: C[C@H]1[C@H](NS(=O)(=O)N2CCN(c3ccc(C(F)(F)F)cn3)CC2)O[C@@H]2O[C@@]3(C)CC[C@H]4[C@H](C)CC[C@@H]1[C@@]24OO3 [Compound 30]
EC50 [nM]: 311

molecule: C[C@H]1[C@H](N2CCN(C(=O)Nc3ccc(C(F)(F)F)cc3)CC2)O[C@@H]2O[C@@]3(C)CC[C@H]4[C@H](C)CC[C@@H]1[C@@]24OO3 [Compound 23]
EC50 [nM]: 453

molecule: C[C@H]1[C@H](N2CCN(C(=O)Nc3ccc(C(C)(C)C)cc3)CC2)O[C@@H]2O[C@@]3(C)CC[C@H]4[C@H](C)CC[C@@H]1[C@@]24OO3 [Compound 22]
EC50 [nM]: 616

molecule: C[C@H]1[C@H](N2CCN(C(=O)Nc3ccc(F)cc3)CC2)O[C@@H]2O[C@@]3(C)CC[C@H]4[C@H](C)CC[C@@H]1[C@@]24OO3 [Compound 24]
EC50 [nM]: 340

molecule: C[C@H]1[C@H](N2CCN(S(=O)(=O)c3cccc(F)c3)CC2)O[C@@H]2O[C@@]3(C)CC[C@H]4[C@H](C)CC[C@@H]1[C@@]24OO3 [Compound 17]
EC50 [nM]: 637

molecule: C[C@H]1[C@H](N2CCN(S(=O)(=O)c3cccc(C(F)(F)F)c3)CC2)O[C@@H]2O[C@@]3(C)CC[C@H]4[C@H](C)CC[C@@H]1[C@@]24OO3 [Compound 16]
EC50 [nM]: 431

molecule: CCCCS(=O)(=O)N1CCN([C@@H]2O[C@@H]3O[C@@]4(C)CC[C@H]5[C@H](C)CC[C@@H]([C@H]2C)[C@@]35OO4)CC1 [Compound 13]
EC50 [nM]: 2720

molecule: C[C@H]1[C@H](N2CCN(S(=O)(=O)c3ccc(F)cc3)CC2)O[C@@H]2O[C@@]3(C)CC[C@H]4[C@H](C)CC[C@@H]1[C@@]24OO3 [Compound 19]
EC50 [nM]: 558

molecule: C[C@H]1[C@H](N2CCN(C(=O)c3ccc(C(F)(F)F)cc3)CC2)O[C@@H]2O[C@@]3(C)CC[C@H]4[C@H](C)CC[C@@H]1[C@@]24OO3 [Compound 27]
EC50 [nM]: 136

molecule: C[C@H]1[C@H](N2CCN(C(=O)c3ccc(F)cc3)CC2)O[C@@H]2O[C@@]3(C)CC[C@H]4[C@H](C)CC[C@@H]1[C@@]24OO3 [Compound 28]
EC50 [nM]: 190

molecule: C[C@H]1[C@H](N2CCN(S(=O)(=O)c3ccc(C(F)(F)F)cc3)CC2)O[C@@H]2O[C@@]3(C)CC[C@H]4[C@H](C)CC[C@@H]1[C@@]24OO3 [Compound 18]
EC50 [nM]: 217

molecule: CC(=O)Nc1ccc(S(=O)(=O)N2CCN([C@@H]3O[C@@H]4O[C@@]5(C)CC[C@H]6[C@H](C)CC[C@@H]([C@H]3C)[C@@]46OO5)CC2)cc1 [Compound 15]
EC50 [nM]: 1950

molecule: C[C@H]1[C@H](NS(=O)(=O)N2CCN(c3ccccn3)CC2)O[C@@H]2O[C@@]3(C)CC[C@H]4[C@H](C)CC[C@@H]1[C@@]24OO3 [Compound 29]
EC50 [nM]: 173
